Reference source: patent US4536397A

System: Staphylococcus aureus
Assay: MIC, tube dilution method
Type: cell-based
Conditions: strain Russell(PC)r; BHI broth
Starred links: 1 amine or outer side, 2 acyl side, 3 side chain; linkers in the order of their positions; H or OH if unused. Positions of bridges follow the written chain, without caps; N, C: chain ends. Non-standard residues stand in square brackets, D forms with d. Residues, ends and D or L forms follow the SMILES beside them. ξ: configuration not given here. *: point of attachment. X2 = CC(C)[C@H](C)[C@@H](C(=O)[*:2])N(C)[*:1]; NMeLeu(3ξ-Me) = CN[C@H](C(=O)O)C(C)C(C)C; d(cisHyp) = O=C(O)[C@H]1C[C@@H](O)CN1; X1 = CC(C)C(C)C(C(=O)[*:2])N(C)[*:1]; Picolinoyl(3-OH) = O=C(c1ncccc1O)*; NMePhg = CN[CH](C(=O)O)c1ccccc1; Thr(3ξ) = CC(O)[C@H](N)C(=O)O; Hyp = O=C(O)[CH]1C[CH](O)CN1; Abu = CC[CH](N)C(=O)O; Sar = CNCC(=O)O
reported property: MIC (µg/mL)

>  <compound>
CC(C)CC1NC(=O)C(NC(=O)c2ncccc2O)C(C)OC(=O)C(c2ccccc2)N(C)C(=O)C(C)NC(=O)C(C(C)C(C)C)N(C)C(=O)CN(C)C(=O)C2CCCN2C1=O (stereo not shown) [NV II, neoviridogrisein II] ({Picolinoyl(3-OH)}-TLP[Sar][X1]A[NMePhg]; ester 1-C; configuration not given here)

>  <measured target>
Staphylococcus aureus

>  <reported property>
MIC

>  <unit abbrev>
µg/mL

>  <val>
0.2

$$$$
>  <compound>
CC[C@@H]1NC(=O)[C@H](C(C)C(C)C)N(C)C(=O)CN(C)C(=O)[C@H]2CCCN2C(=O)[C@@H](CC(C)C)NC(=O)[C@@H](NC(=O)c2ncccc2O)C(C)OC(=O)[C@H](c2ccccc2)N(C)C1=O (stereo partly drawn) [NV I, neoviridogrisein I] ({Picolinoyl(3-OH)}-[Thr(3ξ)][dL][dP][Sar][NMeLeu(3ξ-Me)][Abu][NMePhg]; ester 1-C)

>  <measured target>
Staphylococcus aureus

>  <reported property>
MIC

>  <unit abbrev>
µg/mL

>  <val>
0.2

$$$$
>  <compound>
CC(C)C[C@H]1NC(=O)[C@@H](NC(=O)c2ncccc2O)[C@@H](C)OC(=O)[C@H](c2ccccc2)N(C)C(=O)[C@H](C)NC(=O)[C@H]([C@@H](C)C(C)C)N(C)C(=O)CN(C)C(=O)[C@H]2C[C@@H](O)CN2C1=O [VG, viridogrisein] ({Picolinoyl(3-OH)}-T[dL][d(cisHyp)][Sar][X2]A[NMePhg]; ester 1-C)

>  <measured target>
Staphylococcus aureus

>  <reported property>
MIC

>  <unit abbrev>
µg/mL

>  <val>
0.4

$$$$
>  <compound>
CCC1NC(=O)C(C(C)C(C)C)N(C)C(=O)CN(C)C(=O)C2CC(O)CN2C(=O)C(CC(C)C)NC(=O)C(NC(=O)c2ncccc2O)C(C)OC(=O)C(c2ccccc2)N(C)C1=O (stereo not shown) [NV III, neoviridogrisein III] ({Picolinoyl(3-OH)}-TL[Hyp][Sar][X1][Abu][NMePhg]; ester 1-C; configuration not given here)

>  <measured target>
Staphylococcus aureus

>  <reported property>
MIC

>  <unit abbrev>
µg/mL

>  <val>
0.4

$$$$
